- System: MOLM14
- test_summary: Kinase inhibitor drug combination screen (MTS, Bliss-independence analysis)
- cond: MOLM14, Drug 2 = AS at approximate IC50, 48 h
recorded_metric: fractional inhibition over Bliss prediction

Q. Query (compound): CCCCCCCCCCCCc1ccc(S(=O)(=O)Nc2nncs2)cc1 ; field requested: fractional inhibition over Bliss prediction
A. 0.26

###

- Test system: KOPN8
- test_summary: Kinase inhibitor drug combination screen (MTS, Bliss-independence analysis)
- cond: KOPN8, Drug 2 = ART-838 at approximate IC50, 48 h
recorded_metric: fractional inhibition over Bliss prediction

Example entries and their recorded answers appear below.
CC(=O)Nc1cccc(-n2c(=O)n(C3CC3)c(=O)c3c(Nc4ccc(I)cc4F)n(C)c(=O)c(C)c32)c1 ... 0.20
CC1(C)CNc2cc(NC(=O)c3cccnc3NCc3ccncc3)ccc21 ... 0.15
Cn1cc(-c2ccc3nnc(C(F)(F)c4ccc5ncccc5c4)n3n2)cn1 ... KOPN8 (0.19)
Clc1ccc(Nc2nnc(Cc3ccncc3)c3ccccc23)cc1 ... 0.12
COc1ccc(COc2ccc(Cc3cnc(N)nc3N)cc2OC)cc1 ... KOPN8 (0.19)
CS(=O)(=O)N1CCN(Cc2cc3nc(-c4cccc5[nH]ncc45)nc(N4CCOCC4)c3s2)CC1 ... 0.14

Q. Query (compound): Cc1ccc(F)c(NC(=O)Nc2ccc(-c3cccc4[nH]nc(N)c34)cc2)c1 ; field requested: fractional inhibition over Bliss prediction
A. 0.19

Q. Query (compound): Cn1cnc2c(F)c(Nc3ccc(Br)cc3Cl)c(C(=O)NOCCO)cc21 ; field requested: fractional inhibition over Bliss prediction
A. KOPN8 (0.19)

###

The entries below are paired with their reported fractional inhibition over Bliss prediction.
- System: MOLM14
- test_summary: Kinase inhibitor drug combination screen (MTS, Bliss-independence analysis)
- cond: MOLM14, Drug 2 = ART-838 at approximate IC50, 48 h

CCCCCCCCCCCCc1ccc(S(=O)(=O)Nc2nncs2)cc1 ... 0.20

Q. Query (compound): CN1CCN(CCOc2cc(OC3CCOCC3)c3c(Nc4c(Cl)ccc5c4OCO5)ncnc3c2)CC1 ; field requested: fractional inhibition over Bliss prediction
A. 0.21

###

- Tested on: MOLM14
- test_summary: Kinase inhibitor drug combination screen (MTS, Bliss-independence analysis)
- cond: MOLM14, Drug 2 = ART-838 at approximate IC50, 48 h
recorded_metric: fractional inhibition over Bliss prediction

Example entries and their recorded answers appear below.
O=C(O)c1ccc(Nc2ncc3c(n2)-c2ccc(Cl)cc2C(c2c(F)cccc2F)=NC3)cc1 [MLN8054] ... MOLM14 (0.15),
Cn1cc(-c2ccc3nnc(C(F)(F)c4ccc5ncccc5c4)n3n2)cn1 [JNJ-38877605] ... MOLM14 (0.17),
Cc1ccc(S(=O)(=O)OCC(=O)Nc2ccc(C(=O)O)c(O)c2)cc1 [S31-201] ... MOLM14 (0.18),
Oc1nc(-c2ccc(C(F)(F)F)cc2)nc2c1CSCC2 [XAV-939] ... MOLM14 (0.17),
NC(=O)c1ccc(-c2nc(-c3ccc4c(c3)OCO4)c(-c3ccccn3)[nH]2)cc1 [SB-431542] ... 0.11

Q. Query (molecule): Nc1ncnc2c1c(-c1cccc(OCc3ccccc3)c1)cn2C1CC(CN2CCCC2)C1 (stereo not drawn) [NVP-ADW742] ; field requested: fractional inhibition over Bliss prediction
A. MOLM14 (0.17),

Q. Query (molecule): CC1(C)CCC(CN2CCN(c3ccc(C(=O)NS(=O)(=O)c4ccc(NCC5CCOCC5)c([N+](=O)[O-])c4)c(Oc4cnc5[nH]ccc5c4)c3)CC2)=C(c2ccc(Cl)cc2)C1 [ABT-199] ; field requested: fractional inhibition over Bliss prediction
A. MOLM14 (0.18),

Q. Query (molecule): Cn1cnc2c(F)c(Nc3ccc(Br)cc3Cl)c(C(=O)NOCCO)cc21 [Selumetinib] ; field requested: fractional inhibition over Bliss prediction
A. MOLM14 (0.15),

###

The entries below are paired with their reported fractional inhibition over Bliss prediction.
- System: MOLM14
- test_summary: Kinase inhibitor drug combination screen (MTS, Bliss-independence analysis)
- cond: MOLM14, Drug 2 = AS at approximate IC50, 48 h

NC(=O)c1ccc(-c2nc(-c3ccc4c(c3)OCO4)c(-c3ccccn3)[nH]2)cc1 ... 0.16

Q. Query (compound): CN1CCN(CCOc2cc(OC3CCOCC3)c3c(Nc4c(Cl)ccc5c4OCO5)ncnc3c2)CC1 ; field requested: fractional inhibition over Bliss prediction
A. 0.33

Reference source: patent US9918972B2
